Biological target: T1, his-tagged human CDH6 extracellular region protein (hCDH6 ECD-his) (human, UniProt P55285 19-615)
T1 construct: also called Human CDH6-his; hCDH6-his; not shown: his tag
T1 sequence: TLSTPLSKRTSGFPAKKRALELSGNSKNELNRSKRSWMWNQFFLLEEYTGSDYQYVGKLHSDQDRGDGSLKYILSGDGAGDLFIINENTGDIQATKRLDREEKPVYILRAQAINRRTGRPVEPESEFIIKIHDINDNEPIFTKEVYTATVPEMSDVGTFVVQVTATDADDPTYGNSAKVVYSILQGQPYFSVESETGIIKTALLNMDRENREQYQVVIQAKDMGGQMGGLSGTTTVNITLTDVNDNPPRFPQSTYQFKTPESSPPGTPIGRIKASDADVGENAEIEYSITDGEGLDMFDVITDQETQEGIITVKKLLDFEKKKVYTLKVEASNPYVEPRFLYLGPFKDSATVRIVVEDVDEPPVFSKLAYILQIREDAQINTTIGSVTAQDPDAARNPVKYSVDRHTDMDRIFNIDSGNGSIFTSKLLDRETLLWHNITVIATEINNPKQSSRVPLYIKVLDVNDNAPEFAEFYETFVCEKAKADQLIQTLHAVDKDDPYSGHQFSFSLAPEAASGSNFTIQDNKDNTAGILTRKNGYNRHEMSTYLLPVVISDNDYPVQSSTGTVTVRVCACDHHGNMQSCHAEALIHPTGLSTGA
Assay: ELISA, coated antigen
Measured Parameter: EC50

Binder: hCDH6-14-H6L3 (antibody, V domains shown, Humanized) VH: EVQLVQSGAEVKKPGASVKVSCKASGYTFTDNYINWVRQAPGQRLEWMGWIYPGTGNSYYNEKFKGRVTITVDTSASTAYMELSSLRSEDTAVYLCASSYGDSFDYWGQGTTVTVSS VL: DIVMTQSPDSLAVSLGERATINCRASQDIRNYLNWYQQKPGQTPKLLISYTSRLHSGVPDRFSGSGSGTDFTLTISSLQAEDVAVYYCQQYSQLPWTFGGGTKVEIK
Measured Parameter: EC50
Result: 0.062 nM
